- test.system: PRMT5-MEP50 enzyme (Homo sapiens)
- Construct: One virus expresses full length human PRMT5 with Flag-tag at N-terminus; Flag (N); purchased Charles River (Argenta); host or cells: insect cells (Sf9), baculovirus co-infection
- method: In vitro assay 1b: PRMT5-MEP50 high throughput mass spectrometer assay (SAH formation), 1.25 nM enzyme
- Type: biochemical
- test.context: 1.25 nM enzyme, 1 μM SAM, 0.3 μM H2A, 30° C., 120 min; averaged values; read-out: pIC50 Assay 1b (converted)
reported.endpoint: IC50 (nM)

Solved cases below.
1. Nc1ccc(CCCC[C@H]2C[C@@H](n3ccc4c(N)ncnc43)[C@H](O)[C@@H]2O)cn1 [Compound 56] : 7.94
2. Nc1ncnc2c1ccn2[C@@H]1C[C@H](CCc2cccnc2)[C@@H](O)[C@H]1O [Compound 67] : 501
3. Nc1ncnc2c1ccn2[C@@H]1C[C@H](CCCCc2cnc3c(N)cccc3c2)[C@@H](O)[C@H]1O [Compound 59] : 2000

(a) Nc1cc(CCC[C@H]2C[C@@H](n3ccc4c(N)ncnc43)[C@H](O)[C@@H]2O)ccn1 [Compound 45]
(b) Nc1ncnc2c1ccn2[C@@H]1C[C@H](CCCCc2ccncc2)[C@@H](O)[C@H]1O [Compound 63]
(c) Nc1ccc2cccc(CCC[C@H]3C[C@@H](n4ccc5c(N)ncnc54)[C@H](O)[C@@H]3O)c2n1 [Compound 50]
(d) Nc1ncnc2c1ccn2[C@@H]1C[C@H](CCCc2cnc3ccccc3c2)[C@@H](O)[C@H]1O [Compound 43]
q: With regard to IC50, arrange the entries in ascending order, please. Could you list the labels in the order requested?
a: c, d, a, b

###

- test.system: PRMT5-MEP50 enzyme (Homo sapiens, UniProt O14744)
- Construct: One virus expresses full length human PRMT5 with Flag-tag at N-terminus; Flag (N); purchased Charles River (Argenta); host or cells: insect cells (Sf9), baculovirus co-infection
- Sequence (O14744 whole entry): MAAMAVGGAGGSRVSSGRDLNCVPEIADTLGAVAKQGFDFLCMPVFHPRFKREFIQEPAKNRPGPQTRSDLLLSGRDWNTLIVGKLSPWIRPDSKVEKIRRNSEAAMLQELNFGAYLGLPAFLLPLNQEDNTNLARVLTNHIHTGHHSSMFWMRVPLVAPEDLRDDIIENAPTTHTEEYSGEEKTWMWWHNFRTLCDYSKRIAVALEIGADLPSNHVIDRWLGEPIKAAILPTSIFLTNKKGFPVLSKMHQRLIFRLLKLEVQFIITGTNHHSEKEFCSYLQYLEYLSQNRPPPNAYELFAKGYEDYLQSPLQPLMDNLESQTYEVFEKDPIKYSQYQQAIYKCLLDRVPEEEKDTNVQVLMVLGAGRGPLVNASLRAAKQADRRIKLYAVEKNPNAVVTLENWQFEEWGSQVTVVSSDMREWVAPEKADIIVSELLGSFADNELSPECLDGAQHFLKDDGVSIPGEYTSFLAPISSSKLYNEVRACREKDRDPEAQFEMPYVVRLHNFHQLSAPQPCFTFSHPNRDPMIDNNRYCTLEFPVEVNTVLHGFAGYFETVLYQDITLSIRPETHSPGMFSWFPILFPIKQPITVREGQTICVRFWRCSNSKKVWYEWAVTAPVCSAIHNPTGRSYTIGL
- Sequence (Q9BQA1 whole entry partner): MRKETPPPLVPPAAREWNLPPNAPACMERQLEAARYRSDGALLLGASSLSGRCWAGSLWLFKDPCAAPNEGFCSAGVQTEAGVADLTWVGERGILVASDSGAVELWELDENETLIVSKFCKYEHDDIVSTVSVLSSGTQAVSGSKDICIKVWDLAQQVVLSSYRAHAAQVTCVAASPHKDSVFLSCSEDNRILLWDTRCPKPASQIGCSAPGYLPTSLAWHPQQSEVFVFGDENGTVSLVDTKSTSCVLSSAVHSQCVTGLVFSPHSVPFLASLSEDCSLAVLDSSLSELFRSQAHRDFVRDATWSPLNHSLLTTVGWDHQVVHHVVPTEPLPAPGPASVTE
- method: In vitro assay 1b: PRMT5-MEP50 high throughput mass spectrometer assay (SAH formation), 1.25 nM enzyme
- Format: biochemical
- test.context: 1.25 nM enzyme, 1 μM SAM, 0.3 μM H2A, 30° C., 120 min; averaged values; read-out: pIC50 Assay 1b (converted)
- Description: Experimental Procedures In Vitro Assay (Assay 1a and 1b) PRMT5-MEP50 enzyme was purchased from Charles River (Argenta). The enzyme complex was produced in insect cells (Sf9) infected simultaneously with two baculoviruses. One virus expresses full length human PRMT5 with Flag-tag at N-terminus, the second virus expresses full length MEP50 with His6-TEV cleavage at N-terminus. […]
reported.endpoint: IC50 (nM)

Some solved entries appear below for comparison.
1) Nc1cccc(CC[C@H]2C[C@@H](n3ccc4c(N)ncnc43)[C@H](O)[C@@H]2O)n1 [Compound 28] : 158
2) Nc1ncnc2c1ccn2[C@@H]1C[C@H](CCc2ccn3c(Cl)cnc3c2)[C@@H](O)[C@H]1O [Compound 13] : 1.26

(P) Nc1ncnc2c1ccn2[C@@H]1C[C@H](CCC2=CC3=NC(=O)CN3C=C2)[C@@H](O)[C@H]1O [Compound 71]
(Q) Nc1ncnc2c1ccn2[C@@H]1C[C@H](CCCCc2ccn3ccnc3c2)[C@@H](O)[C@H]1O [Compound 61]
(R) Cc1cn2ccc(OC[C@H]3C[C@@H](n4ccc5c(N)ncnc54)[C@H](O)[C@@H]3O)cc2n1 [Compound 33]
(S) Nc1ncnc2c1ccn2[C@@H]1C[C@H](CCc2ccn3cc(C(F)(F)F)nc3c2)[C@@H](O)[C@H]1O [Compound 23]
q: // sort entries: IC50, high to low Form entry: ranked labels (order as requested).
a: P, S, Q, R

(P) CNc1ncnc2c1ccn2[C@@H]1C[C@H](CCc2ccn3c(C)cnc3c2)[C@@H](O)[C@H]1O [Compound 9]
(Q) Nc1ncc(CC[C@H]2C[C@@H](n3ccc4c(N)ncnc43)[C@H](O)[C@@H]2O)cn1 [Compound 69]
q: Returns: the argument ( P or Q ) having the larger IC50. Respond with the label that goes with your answer.
a: Q
